Experiment: Solubility observed in the assays
Format: physicochemical
Details: pH 7.4; CA assembly assay; read-out: insolubility at concentrations
ASSAY READOUT: solubility

Problem: Dear colleague, please send me the reported solubility for C=CCn1c(C(=O)N2CCN(C/C=C/c3ccccc3)CC2)cs/c1=N/N=C\C=C\c1ccco1 when you can.
Solution: > 10 µM

* * *

Experiment: Cytotoxicity in human macrophages (PMA-stimulated THP-1 monocytes, MTT)
Format: cell-based
Conditions: PMA-stimulated THP-1 monocytes (human macrophages), 48hs
ASSAY READOUT: EC50 at 48 h

Problem: Please indicate EC50 at 48 h recorded for Cc1ccc2c(c1)nc(-c1ccc(N(C)C)cc1)n2CCc1ccccc1 [compound 696]
Solution: > 100 µM

* * *

Assay: Cytotoxicity in TZM-bl cells (MTT)
Assay type: cell-based, human
Conditions: human, TZM-bl cells; 48hs
ASSAY READOUT: EC50 at 48 h

Problem: For Cc1ccc2c(c1)nc(-c1ccc(N(C)C)cc1)n2CCc1ccccc1 [compound 696] , write its EC50 at 48 h.
Solution: > 50 µM
